System: P-Akt (S473)
Experiment Summary: Cell based AlphaLISA assay, inhibition of P-Akt (S473) (mTORC2 substrate phosphorylation) in MDA-MB-468 cells
Assay Conditions: Homo sapiens, MDA-MB-468, 4 h, AlphaLISA, two to four hours at 37° C., read-out: pIC50 for Inhibition of mTORC1 and mTORC2 Substrate Phosphorylation, p-AKT 1/2/3 -(S473) (converted)
Property: IC50

These solved cases illustrate the format of a correct answer.
# value lookup — system P-Akt (S473), readout IC50, item `CO[C@H]1C[C@@H]2CC[C@@H](C)[C@@](O)(O2)C(=O)C(=O)N2CCCC[C@H]2C(=O)O[C@H]([C@H](C)C[C@@H]2CC[C@@H](OCCCCc3cn(CCOCCOCCOCCNC(=O)CCCCC(=O)NCCCCn4nc(-c5ccc6oc(N)nc6c5)c5c(N)ncnc54)nn3)[C@H](OC)C2)CC(=O)[C@H](C)/C=C(\C)[C@@H](O)[C@@H](OC)C(=O)[C@H](C)C[C@H](C)/C=C/C=C/C=C/1C`
3.16 to 31.6 nM

And for `CO[C@H]1C[C@@H]2CC[C@@H](C)[C@@](O)(O2)C(=O)C(=O)N2CCCC[C@H]2C(=O)O[C@H]([C@H](C)C[C@@H]2CC[C@H](n3cc(-c4cccc(C(=O)NCCOCCOCCOCCC(=O)NCCOCCOCCOCCOCCC(=O)NCCCCn5nc(-c6ccc7oc(N)nc7c6)c6c(N)ncnc65)c4)nn3)[C@H](OC)C2)CC(=O)[C@H](C)/C=C(\C)[C@@H](O)[C@@H](OC)C(=O)[C@H](C)C[C@H](C)/C=C/C=C/C=C/1C` ?
3.16 to 31.6 nM

And for `CO[C@H]1C[C@@H]2CC[C@@H](C)[C@@](O)(O2)C(=O)C(=O)N2CCCC[C@H]2C(=O)O[C@H]([C@H](C)C[C@@H]2CC[C@H](n3cc(COC(=O)NCCOCCOCCOCCC(=O)NCCOCCOCCC(=O)NCCCCn4nc(-c5cc6cc(O)ccc6[nH]5)c5c(N)ncnc54)nn3)[C@H](OC)C2)C[C@@H](OC)[C@H](C)/C=C(\C)[C@@H](O)[C@@H](OC)C(=O)[C@H](C)C[C@H](C)/C=C/C=C/C=C/1C` ?
> 1000 nM

Further cases:
# value lookup — system P-Akt (S473), readout IC50, item `CO[C@H]1C[C@@H]2CC[C@@H](C)[C@@](O)(O2)C(=O)C(=O)N2CCCC[C@H]2C(=O)O[C@H]([C@H](C)C[C@@H]2CC[C@@H](OCCCCc3cn(CCOCCOCCOCCOCCOCCOCCC(=O)NCCCCn4ncc5c(N)ncnc54)nn3)[C@H](OC)C2)CC(=O)[C@H](C)/C=C(\C)[C@@H](O)[C@@H](OC)C(=O)[C@H](C)C[C@H](C)/C=C/C=C/C=C/1C`
> 1000 nM
